test: Cell-based coincidence reporter assay to measure PMP22 gene transcription in S16 Pmp22-F2sN cells - Primary screen; conditions: S16 Pmp22-F2sN Schwann cells, FLuc/NLuc coincidence luminescence, 24 h; series mostly up to 57.5 µM
The whole screen tested about 43,000 compounds, of which about 830 (1.9%) were called active. Roughly 30% stayed inconclusive and do not appear here. The calls were made as follows: active = clear falling dose curves in both reporters; inconclusive = both reporters move, but less clearly or upward; inactive = either reporter flat; the % is the NLuc reporter signal. The list comes from a sample in which actives are over-represented; it also holds close analogues and randomly drawn compounds.
Form entry, call: pick from active, inactive

For orientation, consider the following solved cases.
Cc1ccc(CSc2oc(-c3cccs3)nc2S(=O)(=O)c2ccc(C)cc2)cc1 :: inactive
COC(=O)c1c(NC(=O)CCCOc2ccccc2)sc2c1CCC(C)C2 (stereo unspecified) :: inactive
CCc1cnc2c(c1SCC(=O)N1CCC(C)CC1)c(=O)n(C)c(=O)n2C :: inactive
COc1cccc(C(=O)N(Cc2cccc(Cl)c2)Cc2ccco2)c1 :: inactive
COc1ccc(OC)c(NC(=O)C2CCN(S(=O)(=O)c3ccc(C)cc3)CC2)c1 :: inactive

query: Could you check what this test reported for Fc1ccc(-c2nc(Nc3cccc(Cl)c3)nc3c2COc2ccccc2-3)cc1 ?
result: inactive

query: Field entry: COc1ccccc1-c1cc(C(F)(F)F)nc(S(=O)(=O)CCCC(=O)Nc2ccc(F)cc2F)n1
result: active

query: Field entry: Cn1nnnc1SCCCNCc1ccc(Cl)cc1
result: inactive

query: Field entry: Cc1ccc(OCCSc2nc3ccc(NC(=O)COc4ccc(C)cc4)cc3s2)cc1
result: active

query: Field entry: Cc1cc(C)cc(-n2c(SCC(=O)NCC3CCCO3)nc3c([nH]c4ccccc43)c2=O)c1 (stereo unspecified)
result: inactive

query: Field entry: O=C(CCS(=O)(=O)c1ccccc1)N(Cc1cccnc1)c1nc2c(F)cccc2s1
result: active

query: Field entry: O=C(CC1Oc2ccccc2NC1=O)NCc1ccc(F)cc1 (stereo unspecified)
result: inactive

query: Field entry: CCN(CCCNC(=O)c1c(C)oc2ncn(CC(C)C)c(=O)c12)Cc1ccccc1
result: inactive

query: Field entry: Cc1ccc2sc(N(Cc3cccnc3)C(=O)C3COc4ccccc4O3)nc2c1C (stereo unspecified)
result: inactive

query: Field entry: CCc1ccc(S(=O)(=O)n2ccnc2)cc1
result: inactive

query: Field entry: COc1ccccc1NC(=O)CN1C(=O)c2ccccc2Sc2ccc(C(=O)N3CCCC3)cc21
result: inactive

query: Field entry: CCOc1ccc(NC(=O)c2c(NC(=O)Cc3ccccc3)sc3c2CCC(C)C3)cc1 (stereo unspecified)
result: active

query: Field entry: COc1ccc(CCNc2nc(-c3ccc(F)cc3)cc(C(F)(F)F)n2)cc1OC
result: inactive

query: Field entry: Cc1ccc(NC(=O)Cn2cnc3nc4c(cc3c2=O)CCCC4)cc1Cl
result: inactive

* * *

assay: Cell-based coincidence reporter assay to measure PMP22 gene transcription in S16 Pmp22-F2sN cells - Primary screen; details: S16 Pmp22-F2sN Schwann cells, FLuc/NLuc coincidence luminescence, 24 h; series mostly up to 57.5 µM
The whole screen tested about 43,000 compounds, of which about 830 (1.9%) were called active. Not shown: some 30% with an inconclusive outcome. Rule for the calls: active = clear falling dose curves in both reporters; inconclusive = both reporters move, but less clearly or upward; inactive = either reporter flat; the % is the NLuc reporter signal. This excerpt belongs to a sample that is enriched for actives.
Form entry, call: pick from Yes = active, No = inactive

CCOC(=O)c1sc(NC(=O)/C=C/c2ccc(C(C)C)cc2)c(C(=O)OCC)c1C :: No
O=C(c1ccc(C(F)(F)F)cc1)N1CCC(c2nc(-c3ccc(S(=O)(=O)N4CCCC4)cc3)no2)CC1 :: Yes

query: Could you check what this test reported for CCc1ccc2oc(-c3ccc(C)c(NC(=O)/C=C/c4ccco4)c3)nc2c1 ?
result: No

query: Field entry: COc1cccc(NC(=O)C(=O)NCC(c2ccc3c(c2)OCO3)N2CCN(C)CC2)c1 (stereo not given)
result: No

query: Field entry: Cc1c(Cl)cccc1NC(=O)N1CCN(C(=O)c2nsc3ccccc23)CC1
result: No

query: Field entry: Cc1ccc(-c2noc(CSc3nnc(-c4ccc(Cl)cc4)n3C)n2)cc1
result: No

* * *

assay: Cell-based coincidence reporter assay to measure PMP22 gene transcription in S16 Pmp22-F2sN cells - Primary screen; settings: S16 Pmp22-F2sN Schwann cells, FLuc/NLuc coincidence luminescence, 24 h; series mostly up to 57.5 µM
The whole screen tested about 43,000 compounds, of which about 830 (1.9%) were called active. About 30% were inconclusive and are not listed. Rule for the calls: active = clear falling dose curves in both reporters; inconclusive = both reporters move, but less clearly or upward; inactive = either reporter flat; the % is the NLuc reporter signal. This excerpt belongs to a sample that is enriched for actives.
Form entry, call: pick from 1 (yes) for active, 0 (no) for inactive

CCOC(=O)c1oc2ccc(S(=O)(=O)n3nc(-c4ccccc4OC)cc3N)cc2c1C :: 1 (yes)
CCOC(=O)C1CCCN(C(=O)c2ccc3c(c2)sc2nc(-c4ccc(CC)cc4)cn23)C1 (stereo not given) :: 0 (no)
COc1cccc(CNC(=O)c2nnn(CC(=O)Nc3cc(Cl)ccc3C)c2N)c1 :: 0 (no)

query: Could you check what this test reported for COc1cc(C(=O)N2CCC(c3ccncc3)CC2)cc(OC)c1OC ?
result: 0 (no)

query: Field entry: CC1CCN(CCCNC(=O)CN2C(=O)CSc3ccc(S(=O)(=O)N4CCCCC4)cc32)CC1
result: 0 (no)

* * *

Assay: Cell-based coincidence reporter assay to measure PMP22 gene transcription in S16 Pmp22-F2sN cells - Primary screen
Settings: S16 Pmp22-F2sN Schwann cells, FLuc/NLuc coincidence luminescence, 24 h; series mostly up to 57.5 µM
Excerpt: Assay Provider: Jim Inglese Ph.D. National Center for Advancing Translational Science, National Institutes of Health, Rockville, MD CMT is a heterogeneous group of neurological disorders that affect approximately 1 in 2,500 people. In particular, the most common form of CMT, CMT1A is genetically linked to the duplication of the PMP22 gene which leads to Schwann cell overexpression, thus manifesting itself as a typical case of dose-sensitive diseases. […]
The campaign covered roughly 43,000 compounds. About 830 (1.9%) were called active. About 30% were inconclusive and are not listed. The calls were made as follows: active = clear falling dose curves in both reporters; inconclusive = both reporters move, but less clearly or upward; inactive = either reporter flat; the % is the NLuc reporter signal. The entries come from a sample that favours actives as a whole.
Form entry, call: pick from true (1) = active, false (0) = inactive

COc1ccc(C2Sc3ccccc3NC3=C2C(=O)c2ccccc23)c(OC)c1OC (stereo not given) :: true (1)
CCCn1c2ccccc2c2cnn(CC(=O)NCC3CCN(Cc4ccc(C)cc4)CC3)c(=O)c21 :: true (1)
CCCn1c2ccccc2c2cnn(CC(=O)N3CCCC(C(=O)OCC)C3)c(=O)c21 (stereo not given) :: false (0)
O=C(c1ccc2c(c1)N(Cc1ccc(F)cc1)C(=O)c1ccccc1S2(=O)=O)N1CCN(c2ccccn2)CC1 :: true (1)
O=S(=O)(Nc1ccc2nc(-c3cccc(Cl)c3)oc2c1)c1ccccc1 :: false (0)
CCOC(=O)C1CCN(c2ncnc3c2c(-c2ccccc2)cn3-c2cccc(C)c2)CC1 :: false (0)
CCc1ccc(Nc2nn3c(=O)c4cc5c(cc4nc3s2)OCO5)cc1 :: false (0)
CCCn1c2ccccc2c2cnn(CC(=O)NCCCOC(C)C)c(=O)c21 :: false (0)
CCCN(CCC)CCCNC(=O)Cn1ncc2c3ccccc3n(Cc3ccccc3)c2c1=O :: false (0)
O=C(c1ccc2c(c1)N(Cc1ccccc1F)C(=O)c1ccccc1S2(=O)=O)N1CCOCC1 :: false (0)

query: Could you check what this test reported for Cc1ccc(-n2c(=O)c3cccnc3n2CC(=O)NCc2ccc(F)cc2)cc1C ?
result: false (0)

query: Field entry: COc1ccccc1-c1cc2nc(C)c(CCC(=O)NC3CCCCC3)c(C)n2n1
result: false (0)

query: Field entry: COc1ccc(OC)c(CCNC(=O)CCCn2c(=O)c3cccn3c3cccnc32)c1
result: false (0)

query: Field entry: O=C(CCCn1c(=O)c2cccn2c2cccnc21)NCc1ccc(F)cc1
result: true (1)

query: Field entry: CC1=C(C(=O)OCc2ccc(C)cc2)C(c2ccccc2Cl)CC(=O)N1 (stereo not given)
result: false (0)

query: Field entry: CCOC(=O)c1c(NC(=O)c2cc(CC)on2)sc(C(C)=O)c1C
result: false (0)

query: Field entry: CCc1ccc(NC(=O)CSc2nc3c([nH]c4ccccc43)c(=O)n2-c2cccc(OC)c2)cc1
result: false (0)

query: Field entry: COc1ccc(N2CCN(Cc3nc4c(c(=O)[nH]c(=O)n4C)n3Cc3ccc(Cl)cc3)CC2)cc1
result: false (0)

query: Field entry: Cc1nnc(C)n1-c1ccc(C(=O)Nc2cccc(Br)c2)cc1
result: false (0)

query: Field entry: CCOC(=O)c1ccc(NC(=O)CSc2nc3c([nH]c4ccccc43)c(=O)n2C)cc1
result: true (1)

* * *

assay: Cell-based coincidence reporter assay to measure PMP22 gene transcription in S16 Pmp22-F2sN cells - Primary screen; settings: S16 Pmp22-F2sN Schwann cells (luciferase reporters placed in the Pmp22 gene), FLuc/NLuc coincidence luminescence, 24 h; series mostly up to 57.5 µM; also: potency is read from the fitted curve at half-maximal effect
Hit rate of the full screen: of about 43,000 compounds, about 830 (1.9%) were called active. Roughly 30% stayed inconclusive and do not appear here. The full list was thinned out, with actives kept by preference.
measured_attribute: Potency

Below, each entry is followed by its recorded Potency result.
Cc1c(-c2nc(-c3ccc4c(c3)OCO4)no2)nnn1-c1ccc(Br)cc1F :: inactive
COc1cc(NC(=O)C2CCN(c3cnccn3)CC2)cc(OC)c1 :: inactive
COc1cccc(N2CCN(S(=O)(=O)c3ccc4c(c3)CCCN4C(C)=O)CC2)c1 :: inactive
COc1cc(NC(=O)c2nc3ccccc3nc2C)cc(OC)c1OC :: inactive
Cc1nnc(SCC(=O)NCc2ccccc2Cl)c2nn(-c3ccccc3)c(C)c12 :: 14.1 µM (active)
Cc1cc(C)cc(NC(=O)CCS(=O)(=O)c2cc3c4c(c2)CCN4C(=O)CC3)c1 :: inactive
CCCCOc1ccc(Cn2c(=O)oc3ccc(C)cc32)cc1OC :: inactive
Cc1ccc(Nc2nc3ccccc3nc2-n2nc(C)cc2C)c(Cl)c1 :: inactive
Cc1nnc(N2CCCC(C(=O)NCCN(C)C)C2)c2nn(-c3ccccc3)c(C)c12 (stereo unspecified) :: inactive
Cc1ccc(NC(=O)CN2c3ccccc3S(=O)(=O)c3ccccc32)cc1F :: inactive

query: Which Potency reading was recorded for the compound O=C(NCCCc1ccccc1)c1ccc2c(c1)sc1nc(-c3ccc(F)cc3)cn12 ?
result: inactive

query: Field entry: CCOCCCNC(=O)c1ccc2nc(CCc3ccccc3)oc2c1
result: inactive

// data source = PubChem BioAssay AID1508649
